test system: FDH derived from the KNK607 strain; experiment: Haloketone tolerance: residual FDH activity of cell-free extract after standing with haloketone; format: biochemical; details: […]; haloketone 20 mM added 1:1; 30° C., 5 hours; […]
Overview of recorded Residual FDH activity (%) for various compounds
Please respond with the number in % and leave the unit unwritten.

Here are 4 compounds together with their reported answers.
[[record]]
compound = "O=C(CCl)c1cccc(Cl)c1"
value = 27.0

[[record]]
compound = "COC(=O)CC(=O)CCl [Methyl4-chloroacetoacetate, methyl 4-chloroacetoacetate]"
value = 13.1

[[record]]
compound = "CCOC(=O)C(Cl)C(C)=O (centres unmarked) [Ethyl2-chloroacetoacetate, ethyl 2-chloroacetoacetate]"
value = 2.5

[[record]]
compound = "CCOC(=O)CC(=O)CCl [Ethyl4-chloroacetoacetate, ethyl 4-chloroacetoacetate]"
value = 20.1


Next item in the queue.
Entry O=C(CCl)c1cccnc1 — recorded Residual FDH activity (%) = 6.1
